assay-target: NPR-3 (Caenorhabditis elegans)
Construct: expressed in transfected cells; host or cells: HEK293
Sequence (P90745 whole entry): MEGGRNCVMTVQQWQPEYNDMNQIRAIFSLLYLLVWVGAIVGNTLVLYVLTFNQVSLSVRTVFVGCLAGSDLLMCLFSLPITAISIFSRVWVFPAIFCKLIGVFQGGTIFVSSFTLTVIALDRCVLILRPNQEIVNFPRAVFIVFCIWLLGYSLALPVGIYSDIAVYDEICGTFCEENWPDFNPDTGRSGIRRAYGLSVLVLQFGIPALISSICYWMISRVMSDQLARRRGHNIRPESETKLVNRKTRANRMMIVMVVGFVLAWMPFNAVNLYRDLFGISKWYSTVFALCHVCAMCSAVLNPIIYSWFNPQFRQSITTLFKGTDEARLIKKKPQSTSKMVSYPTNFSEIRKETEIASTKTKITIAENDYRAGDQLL
measurement-description: cAMP reporter gene assay, Gi/o (inhibition of forskolin-induced cAMP), NPR-3
Format: cell-based, C. elegans
experimental-setup: 0.1 µM peptide; 1 µM forskolin set to 1.00; transiently transfected HEK293 cells; mean of at least three independent experiments
Experimental: Activation of Gs and Gi/o was assessed with a cAMP reporter gene assay. […] After incubation, the luciferase substrate OneGlo in lysis buffer (Promega) was added and the luminescence was measured in a microplate reader Tecan Spark (Tecan). Data were analyzed with GraphPad Prism 5.03 and are shown as fold of basal or fold of forskolin in case of Gαi/o activity. […]
Listed next: entries and their corresponding cAMP, x-fold of forskolin (mean), NPR-3.

> print(dat)
                                  substance                test.value
1  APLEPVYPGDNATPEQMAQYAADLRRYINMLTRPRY-NH2 [PP, human pancreatic polypeptide, reference compound]  1.02 x-fold of forskolin
2  ASPSFIRF-NH2 [FLP-4-2, C. elegans FMRFamide-like peptide, C-terminally amidated, synthesized by SPPS]  0.94 x-fold of forskolin
3  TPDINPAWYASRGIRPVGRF-NH2 [PrRP20, human prolactin-releasing peptide, 20 residues, reference compound]  1.00 x-fold of forskolin
4  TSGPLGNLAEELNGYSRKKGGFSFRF-NH2 [QRFP26, human pyroglutamylated RFamide peptide, 26 residues, reference compound]  0.90 x-fold of forskolin
5  EASAFGDIIGELKGKGLGGRMRF-NH2 [FLP-27, NPY-like C. elegans FLP with C-terminal RxRF/Ya signature]  0.84 x-fold of forskolin

Query substance follows.
State its cAMP, x-fold of forskolin (mean), NPR-3 on NPR-3 (Caenorhabditis elegans): NPENDTPFGTMRF-NH2 [FLP-3-4, C. elegans FMRFamide-like peptide, C-terminally amidated, synthesized by SPPS]
0.85 x-fold of forskolin

* * *

assay-target: NPR-11 (Caenorhabditis elegans, UniProt Q18179)
Construct: expressed in transfected cells; host or cells: HEK293, transient
Sequence (Q18179 1-402): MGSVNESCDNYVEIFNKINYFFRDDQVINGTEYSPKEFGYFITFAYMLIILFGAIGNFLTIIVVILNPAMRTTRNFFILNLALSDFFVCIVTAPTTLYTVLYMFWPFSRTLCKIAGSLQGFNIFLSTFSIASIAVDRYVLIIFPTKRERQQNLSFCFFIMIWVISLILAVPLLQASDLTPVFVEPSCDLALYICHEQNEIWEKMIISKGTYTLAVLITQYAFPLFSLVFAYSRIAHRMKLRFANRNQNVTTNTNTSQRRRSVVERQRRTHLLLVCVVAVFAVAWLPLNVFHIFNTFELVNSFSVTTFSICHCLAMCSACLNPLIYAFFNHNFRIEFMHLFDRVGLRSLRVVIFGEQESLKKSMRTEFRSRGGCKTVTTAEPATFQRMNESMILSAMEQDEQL
measurement-description: cAMP reporter gene assay, Gi/o (inhibition of forskolin-induced cAMP), NPR-11
Format: cell-based, C. elegans
experimental-setup: 0.1 µM peptide; 1 µM forskolin set to 1.00; transiently transfected HEK293 cells; mean of at least three independent experiments
Listed next: entries and their corresponding cAMP, x-fold of forskolin (mean), NPR-11.

Check out these entries, answers already filled in.
> print(dat)
                                  substance                test.value
1  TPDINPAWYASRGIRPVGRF-NH2 [PrRP20, human prolactin-releasing peptide, 20 residues, reference compound]  0.90 x-fold of forskolin
2  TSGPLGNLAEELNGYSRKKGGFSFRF-NH2 [QRFP26, human pyroglutamylated RFamide peptide, 26 residues, reference compound]  0.14 x-fold of forskolin
3  NPENDTPFGTMRF-NH2 [FLP-3-4, C. elegans FMRFamide-like peptide, C-terminally amidated, synthesized by SPPS]  0.80 x-fold of forskolin
4  APKPKFIRF-NH2 [FLP-5-1, C. elegans FMRFamide-like peptide, C-terminally amidated, synthesized by SPPS]  0.94 x-fold of forskolin
5  ASPSFIRF-NH2 [FLP-4-2, C. elegans FMRFamide-like peptide, C-terminally amidated, synthesized by SPPS]  0.89 x-fold of forskolin

Query substance follows.
Request the reported cAMP, x-fold of forskolin (mean), NPR-11 associated with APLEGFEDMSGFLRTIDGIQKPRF-NH2 [FLP-33, NPY-like C. elegans FLP with C-terminal RxRF/Ya signature]
0.77 x-fold of forskolin
